Could you please report measured growth for the items listed next?
System: SR leukemia
PROTOCOL NOTES: NCI-60 one-dose screen, 48 h (100 = growth as untreated, 0 = no growth, -100 = all killed)
CONDITION DETAILS: 10 µM unless noted
This is part of a sample that, as a whole, favours compounds with a hit. Of some 83,000 tested, about 20% had one in any assay.
Answers are plain numbers, in %.

# count of solved cases: 10
[[record]]
molecule = "O=C(Nc1cccc(Cl)c1)Oc1c(Br)c(Br)c(Br)c(Br)c1Br"
reading = 107

[[record]]
molecule = "CCCCCCCCCCCC(=O)C(CCCCCCCCCC)C(=O)Nc1ccccc1 (configuration not stated)"
reading = 99.7

[[record]]
molecule = "O=C(c1ccccc1)N1N=C(c2ccc(-n3ccc(C(F)(F)F)n3)cc2)CC1c1ccc[nH]1 (configuration not stated)"
reading = 66.7

[[record]]
molecule = "O=C(NCCN1CCOCC1)OCc1nc2nc(Cl)nc(N3CCOCC3)c2[nH]1"
reading = -0.969

[[record]]
molecule = "Clc1ccc2c(c1)c(-c1ccccc1)nc1nncn12"
reading = 83.8

[[record]]
molecule = "Cc1cc(NC(=O)c2cnc(N3CCN(CCOCCOCCOCCOCCC(=O)N[C@H](C(=O)N4C[C@H](O)C[C@H]4C(=O)N[C@@H](C)c4ccc(-c5scnc5C)cc4)C(C)(C)C)CC3)cn2)c2ncccc2c1"
reading = 7.46

[[record]]
molecule = "CCCCCCCCOC(=O)c1ccc(O)c(OC)c1"
reading = 85.3

[[record]]
molecule = "COc1ccc(C(=O)c2cc3c(N)c(C(=O)Nc4cccc(OC)c4)sc3nc2C)cc1"
reading = -2.44

[[record]]
molecule = "Cn1c(COC(=O)NCCc2ccccn2)nc2c(N3CCOCC3)nc(Cl)nc21"
reading = 3.5

[[record]]
molecule = "COc1ccc(C2CC(c3cccc(Nc4ccncc4)c3)=NN2c2ccc(Cl)cc2)cc1 (configuration not stated)"
reading = 1.94


Go through the list and state growth for each entry.
1. CN(C)Cc1c(-c2ccccc2)[nH]c2ccccc12
2. Cc1c2c(cc[n+]1Cc1ccccc1)c1ccc(OCc3ccccc3)cc1n2Cc1ccccc1
3. COc1cc2c(cc1[N+](=O)[O-])-c1ccc([N+](=O)[O-])cc1/C2=N/NC(N)=S
4. CCN1C(=O)N(CC)C2C1NN=c1s/c(=C3\C(=O)Nc4ccccc43)c(=O)n12 (configuration not stated)

Solution:
95.6
-52.5
42.6
18.4

Dear colleague, could you send me growth for each of the items below? Thanks.
1. C(=C\c1n(Cc2ccc3ccccc3c2)c(-c2ccccc2)c(-c2ccccc2)[n+]1Cc1ccc2ccccc2c1)/c1ccccc1
2. Cc1ccc(Nc2cc(=S)nc(N)[nH]2)cc1C
3. Clc1cc(Cl)cc(N2N=C(c3cccc(Nc4ccncc4)c3)CC2c2ccc(Br)cc2)c1 (configuration not stated)

Solution:
1: -37.4; 2: 97.5; 3: 3.33

Each recorded value in this set is attributed to PubChem BioAssay (NCI).
